In this section, each of the compounds is paired with its reported IC50.
System: phospho-ERK1/2 (Thr202/Tyr204)
method: Phospho-ERK cellular assay
Format: cell-based
test-parameters: Homo sapiens; KYSE-520 cells, 2 h at 37° C, TR-FRET; read-out: pERK IC50

- N[C@@H]1c2ccnn2CC12CCN(c1cnc(Sc3ccncc3)cn1)CC2 [Example 25]: < 0.1 µM

q: Give recorded IC50. COc1cccc(Sc2cnc(N3CCC4(CC3)Cn3nccc3[C@H]4N)cn2)c1F [Example 60]
a: < 0.1 µM

q: Give recorded IC50. Cn1cnc2ccc(Sc3cnc(N4CCC5(CC4)Cn4nccc4[C@H]5N)cn3)cc21 [Example 65]
a: < 0.1 µM

q: Give recorded IC50. N[C@@H]1c2cccn2CC12CCN(c1cnc(Sc3cccc(Cl)c3Cl)cn1)CC2 [Example 28]
a: < 0.1 µM

q: Give recorded IC50. Cc1c(Cl)cncc1Sc1cnc(N2CCC3(CC2)Cn2nccc2[C@H]3N)cn1 [Example 62]
a: 0.1 to 0.5 µM

q: Give recorded IC50. N[C@@H]1c2ccnn2CC12CCN(c1cnc(Sc3cccc(F)c3)cn1)CC2 [Example 51]
a: 0.1 to 0.5 µM
